Just for reference, patent US11629139B2 is where these values come from.

Tested on: vesicular stomatitis virus particles (VSV) pseudotyped with EboV Zaire GP
test.name: microbe, parasite or virus in culture
Type: cell-based
condition.info: Vesicular stomatitis virus
property.measured: pIC50
By convention, pIC50 is the negative base-10 log of a molar concentration.

Please review the following examples before continuing.
[
  {
    "compound": "O=C(CC12CC3(F)CC(F)(CC(F)(C3)C1)C2)NCC(=O)N1CCN(Cc2ccccc2OCc2ccc(Br)cc2)CC1 [Compound 1254]",
    "test.system": "vesicular stomatitis virus particles (VSV) pseudotyped with EboV Zaire GP",
    "meas.value": 6.70
  },
  {
    "compound": "O=C(CC12CC3CC(CC(C3)C1)C2)NCC(=O)N1CCN(Cc2cc(F)c(F)cc2O)CC1 [Compound 1324]",
    "test.system": "vesicular stomatitis virus particles (VSV) pseudotyped with EboV Zaire GP",
    "meas.value": 5.82
  },
  {
    "compound": "CC(=O)Nc1ccc(COc2ccc(F)cc2CN2CCN(C(=O)CNC(=O)CC34CC5CC(C3)C(C5)C4)CC2)cc1 [Compound 1445]",
    "test.system": "vesicular stomatitis virus particles (VSV) pseudotyped with EboV Zaire GP",
    "meas.value": 6.15
  }
]

For record CN(C)C(=O)c1ccc(COc2ccccc2CN2CCN(C(=O)CNC(=O)CC34CC5CC(CC(C5)C3)C4)CC2)cc1 [Compound 1802] the listed pIC50 is 5.48

Item: COC(=O)c1ccc(CCc2ccccc2CN2CCN(C(=O)CNC(=O)CC34CC5CC(CC(C5)C3)C4)CC2)cc1 [Compound 1123] | pIC50: 7.70

[2H]C([2H])(c1cc(Cl)ccc1N)N1CCN(C(=O)CNC(=O)C2CC23CCC(F)(F)CC3)CC1 (stereo not shown) [Compound 1413] has a reported pIC50 of 7.17
